Values compiled from patent US20230129364A1.

Below is a list of entries, each paired with its recorded Tau aggregation remaining (ThT fluorescence, % of tau-only control) value.
- System name: Tau protein (wild-type K18) (Homo sapiens)
- Construct: Tau protein (wild-type K18)
- Procedure summary: Tau protein aggregation inhibition test (thioflavin T assay)
- Assay type: biochemical
- Cond: 50 uM test compound; heparin/DTT-induced aggregation, 37° C. 5 days; ThT fluorescence vs tau-only control = 100%

A selection of reference data follows.
>>> print(df.to_string())
                                   compound                               system_name              reading
0     CCN1C(=O)/C(=C/c2c[nH]c3cnccc23)SC1=S  Tau protein (wild-type K18) (Homo sapiens)   83.56 % of control
1     CCN1C(=O)/C(=C/c2c[nH]c3cccnc23)NC1=S  Tau protein (wild-type K18) (Homo sapiens)    87.3 % of control
2         O=C1NC(=S)S/C1=C\c1c[nH]c2ncccc12  Tau protein (wild-type K18) (Homo sapiens)  40.038 % of control
3  O=C1NC(=S)SC1Cc1csc2ccccc12 (centres unmarked)  Tau protein (wild-type K18) (Homo sapiens)  92.633 % of control

Kindly consider the entry below.
Request the reported Tau aggregation remaining (ThT fluorescence, % of tau-only control) associated with `CCN1C(=O)/C(=C/c2csc3ccccc23)SC1=S`
97.55 % of control

====

Below is a list of entries, each paired with its recorded ThT fluorescence remaining (% of control) value.
- System name: aggregated tau protein (wild-type K18) (Homo sapiens)
- Construct: Tau protein (wild-type K18)
- Sequence (P10636 561-685 limits assumed): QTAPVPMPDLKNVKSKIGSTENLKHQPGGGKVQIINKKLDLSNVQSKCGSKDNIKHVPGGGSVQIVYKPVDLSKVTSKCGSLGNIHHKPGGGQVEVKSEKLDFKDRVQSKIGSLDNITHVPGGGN
- Procedure summary: Tau protein aggregate degradation test (thioflavin T assay)
- Assay type: biochemical
- Cond: 50 uM test compound; pre-aggregated tau, further 5 days at 37° C.; ThT fluorescence vs control = 100%

A selection of reference data follows.
                                   compound             reading
0  O=C1NC(=S)SC1Cc1ccsc1 (centres unmarked)  66.03 % of control
1       O=C1NC(=O)/C(=C/c2c[nH]c3ccccc23)S1  64.04 % of control
2  O=C1NC(=S)SC1Cc1cc[nH]c1 (centres unmarked)  81.77 % of control

Request the reported ThT fluorescence remaining (% of control) associated with `CCN1C(=O)/C(=C/c2cccs2)NC1=S`
39.88 % of control

Request the reported ThT fluorescence remaining (% of control) associated with `O=C1NC(=O)/C(=C/c2ccoc2)S1`
61.17 % of control

====

- System name: Tau protein (wild-type K18) (Homo sapiens, UniProt P10636)
- Construct: Tau protein (wild-type K18)
- Sequence (P10636 561-685 limits assumed): as above
- Procedure summary: Tau protein aggregation inhibition test (thioflavin T assay)
- Type: biochemical
- Cond: 50 uM test compound; heparin/DTT-induced aggregation, 37° C. 5 days; ThT fluorescence vs tau-only control = 100%
Assay endpoint: Tau aggregation remaining (ThT fluorescence, % of tau-only control)

A selection of reference data follows.
>>> print(df.to_string())
                              molecule             reading
0           O=C1NC(=O)/C(=C/c2ccoc2)S1  69.16 % of control
1       O=C1NC(=S)S/C1=C\c1csc2ccccc12  20.35 % of control
2  O=C1NC(=O)/C(=C/c2c[nH]c3ncccc23)S1  56.04 % of control
3  CCN1C(=O)/C(=C/c2cccc3ccccc23)SC1=S  81.81 % of control

Hello, I am looking for reported Tau aggregation remaining (ThT fluorescence, % of tau-only control) with Tau protein (wild-type K18) (Homo sapiens, UniProt P10636) for `CCN1C(=O)/C(=C/c2c[nH]c3cccnc23)SC1=S` . Could you help?
74.46 % of control

Hello, I am looking for reported Tau aggregation remaining (ThT fluorescence, % of tau-only control) with Tau protein (wild-type K18) (Homo sapiens, UniProt P10636) for `O=C1NC(=O)/C(=C/c2c[nH]c3cccnc23)S1` . Could you help?
60.71 % of control

Hello, I am looking for reported Tau aggregation remaining (ThT fluorescence, % of tau-only control) with Tau protein (wild-type K18) (Homo sapiens, UniProt P10636) for O=C1NC(=O)C(Cc2ccoc2)S1 (stereo not shown) . Could you help?
63.18 % of control
